# target-of-assay: human α2δ-1 subunit of Cav2.2 calcium channel (Homo sapiens (Human))
# Sequence (P54289 25-1103): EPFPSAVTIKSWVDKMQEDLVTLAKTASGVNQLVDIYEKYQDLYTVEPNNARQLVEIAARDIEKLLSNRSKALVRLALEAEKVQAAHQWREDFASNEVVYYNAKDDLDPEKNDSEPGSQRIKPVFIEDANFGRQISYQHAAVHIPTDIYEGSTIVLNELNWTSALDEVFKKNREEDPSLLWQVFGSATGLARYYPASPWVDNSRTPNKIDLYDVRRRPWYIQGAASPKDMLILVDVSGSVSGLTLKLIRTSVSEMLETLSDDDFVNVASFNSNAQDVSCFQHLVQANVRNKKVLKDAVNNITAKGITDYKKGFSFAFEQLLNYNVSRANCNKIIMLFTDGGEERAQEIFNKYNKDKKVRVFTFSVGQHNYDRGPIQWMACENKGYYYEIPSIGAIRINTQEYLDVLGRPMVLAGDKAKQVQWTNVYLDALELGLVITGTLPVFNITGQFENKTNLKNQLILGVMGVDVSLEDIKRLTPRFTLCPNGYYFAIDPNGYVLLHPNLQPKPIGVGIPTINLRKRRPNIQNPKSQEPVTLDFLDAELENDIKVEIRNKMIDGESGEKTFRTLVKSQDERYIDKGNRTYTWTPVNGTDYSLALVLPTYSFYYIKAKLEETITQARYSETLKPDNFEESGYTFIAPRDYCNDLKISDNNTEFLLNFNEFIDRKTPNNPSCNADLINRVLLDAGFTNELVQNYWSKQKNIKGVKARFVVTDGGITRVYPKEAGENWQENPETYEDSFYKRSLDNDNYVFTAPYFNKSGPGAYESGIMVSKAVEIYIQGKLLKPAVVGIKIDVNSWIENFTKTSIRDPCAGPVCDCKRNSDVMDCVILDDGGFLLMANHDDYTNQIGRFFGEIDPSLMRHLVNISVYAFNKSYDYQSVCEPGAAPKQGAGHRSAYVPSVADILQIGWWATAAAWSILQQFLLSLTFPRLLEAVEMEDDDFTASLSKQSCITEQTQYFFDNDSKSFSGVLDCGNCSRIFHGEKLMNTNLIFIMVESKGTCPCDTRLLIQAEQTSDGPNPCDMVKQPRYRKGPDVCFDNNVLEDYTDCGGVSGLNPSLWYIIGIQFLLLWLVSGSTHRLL
# protocol-summary: Binding assay to human α2δ-1 subunit of Cav2.2 calcium channel ([3H]-Gabapentin)
# study-conditions: binding to α2δ-1, [3H]-Gabapentin; read-out: Ki (nM) α2δ-1
recorded-endpoint: Ki

- compound: "CCNc1ncc2c(n1)N(C)CCN(c1cccc(OC(CCN(C)C(=O)OC(C)(C)C)c3cccs3)c1)C2=O (stereo not shown)"
  result: "> 3000 nM"
- compound: "CN(CCC(OCc1cccc(N2CCN(C)c3nc(O)ncc3C2=O)c1)c1cccs1)C(=O)OC(C)(C)C (stereo not shown)"
  result: "> 3000 nM"
- compound: "CCNc1ncc2c(n1)N(C)CCN(c1cccc(-n3cc(CN4CCC5(CC4)NCCc4ccccc45)nn3)c1)C2=O"
  result: "100 to 500 nM"
- compound: "CCNc1ncc2c(n1)N(C)CCN(c1cccc(COC3(c4ccccc4)CCNCC3)c1)C2=O"
  result: "500 to 3000 nM"
- compound: "CCNc1ncc2c(n1)N(C)CCN(c1cccc(-n3cc(CN4CCC(c5ccccc5)CC4)nn3)c1)C2=O"
  result: "500 to 3000 nM"
- compound: "CSc1ncc2c(n1)N(C)CCN(Cc1ccc(CN(C)C(=O)OC(C)(C)C)cc1)C2=O"
  result: "> 3000 nM"

// next entry
Which Ki value is on record for CN(CC[C@@H](OCc1cccc(N2CCN(C)c3nc(N(C)C)ncc3C2=O)c1)c1ccccc1)C(=O)OC(C)(C)C ?
> 3000 nM

----------
# target-of-assay: human α2δ-1 subunit of Cav2.2 calcium channel (Homo sapiens (Human))
# protocol-summary: Binding assay to human α2δ-1 subunit of Cav2.2 calcium channel ([3H]-Gabapentin)
# study-conditions: binding to α2δ-1, [3H]-Gabapentin; read-out: Ki (nM) α2δ-1
Recorded Ki values for a group of molecules are listed next.

Answered examples (4):
- molecular-string: "CCNc1ncc2c(n1)N(C)CCN(c1cccc(OCCCNC)c1)C2=O"
  Ki: "100 to 500 nM"
- molecular-string: "CCNc1ncc2c(n1)N(C)CCN(c1cccc(CCCN(C)C(=O)OC(C)(C)C)c1)C2=O"
  Ki: "> 3000 nM"
- molecular-string: "CSc1ncc2c(n1)N(C)CCN(c1cccc(-n3cnc(CN(C)C(=O)OC(C)(C)C)c3)c1)C2=O"
  Ki: "> 3000 nM"
- molecular-string: "CCNc1ncc2c(n1)N(C)CCN(c1cccc(CO[C@H](CCN(C)C(=O)OC(C)(C)C)c3cccs3)c1)C2=O"
  Ki: "> 3000 nM"

Which Ki value is on record for CSc1ncc2c(n1)N(C)CCN(c1cccc(O[C@@H](CCN(C)C(=O)OC(C)(C)C)c3ccccc3)c1)C2=O ?
> 3000 nM

Which Ki value is on record for CCNc1ncc2c(n1)N(C)CCN(c1cccc(-n3cc(CNC)cn3)c1)C2=O ?
100 to 500 nM

Which Ki value is on record for CN(CC[C@H](Oc1cccc(N2CCN(C)c3cc(Cl)ncc3C2=O)c1)c1cccs1)C(=O)OCC[Si](C)(C)C ?
> 3000 nM

Which Ki value is on record for CSc1ncc2c(n1)N(C)CCN(c1cccc(-c3noc(C)n3)c1)C2=O ?
> 3000 nM
